As a worked illustration, we turn to MIC data collected for E. coli TEM5 3739E.
RESULT_TYPE: MIC

COMPOUND | RESULT_TYPE | VAL
C[n+]1c(N)cc(N)nc1SCC1=C(C(=O)[O-])N2C(=O)C(NC(=O)C(=NOC(C(=O)O)c3ccc(O)c(O)c3)c3csc(N)n3)C2SC1 (stereo not drawn) | MIC | 0.5 µg/mL
C[n+]1cc(C(=O)O)c(N)nc1SCC1=C(C(=O)[O-])N2C(=O)C(NC(=O)/C(=N\OC(C(=O)O)c3ccc(O)c(O)c3)c3csc(N)n3)[C@H]2SC1 (stereo partly drawn) | MIC | 0.25 µg/mL
Cn1cc[n+]2c(SCC3=C(C(=O)[O-])N4C(=O)C(NC(=O)C(=NOC(C(=O)O)c5ccc(O)c(O)c5)c5csc(N)n5)C4SC3)nc(N)cc12 (stereo not drawn) | MIC | 0.25 µg/mL

###

# Tested on: P. aeruginosa 1912E
# EXPERIMENTAL_DETAILS: Minimum inhibitory concentration, agar dilution
# Type: cell-based
# DETAILS: Pseudomonas aeruginosa, 20 h, read-out: Minimum Inhibitory Concentration

COMPOUND | MIC
Nc1nc(C(=NOC(C(=O)O)c2ccc(O)c(O)c2)C(=O)NC2C(=O)N3C(C(=O)[O-])=C(CSc4nc(N)c5c([n+]4N)CCC5)CSC23)cs1 (stereo not drawn) [I-8(a)] | 0.5 µg/mL
Cn1cc[n+]2c(SCC3=C(C(=O)[O-])N4C(=O)C(NC(=O)C(=NOC(C(=O)O)c5ccc(O)c(O)c5)c5csc(N)n5)C4SC3)nc(N)cc12 (stereo not drawn) [I-11(a)] | 0.5 µg/mL
C[n+]1ccc(N)nc1SCC1=C(C(=O)[O-])N2C(=O)C(NC(=O)/C(=N\OC(C(=O)O)c3ccc(O)c(O)c3)c3csc(N)n3)[C@H]2SC1 (stereo partly drawn) [I-5(a)] | 0.5 µg/mL

###

Measured MIC, listed per entry.
# Test system: E. coli 3190Y
# EXPERIMENTAL_DETAILS: Minimum inhibitory concentration, agar dilution
# Format: cell-based
# DETAILS: Escherichia coli, 3190Y, 20 h, read-out: Minimum Inhibitory Concentration

COMPOUND | MIC (µg/mL)
CC(C)(O/N=C(\C(=O)N[C@@H]1C(=O)N2C(C(=O)[O-])=C(C[n+]3ccccc3)CS[C@H]12)c1csc(N)n1)C(=O)O [CAZ, Ceftazidime, reference compound] | 0.063
C[n+]1cc(CS(=O)(=O)O)c(N)nc1SCC1=C(C(=O)[O-])N2C(=O)C(NC(=O)/C(=N\OC(C(=O)O)c3ccc(O)c(O)c3)c3csc(N)n3)[C@H]2SC1 (stereo partly drawn) [I-7(a)] | 0.063
Nc1cc[n+](N)c(SCC2=C(C(=O)[O-])N3C(=O)C(NC(=O)C(=NOC(C(=O)O)c4ccc(O)c(O)c4)c4csc(N)n4)C3SC2)n1 (stereo not drawn) [I-4(a)] | 0.063
C[n+]1ccc(N)nc1SCC1=C(C(=O)[O-])N2C(=O)C(NC(=O)/C(=N\OC(C(=O)O)c3ccc(O)c(O)c3)c3csc(N)n3)[C@H]2SC1 (stereo partly drawn) [I-5(a)] | 0.063
Cc1c(N)nc(SCC2=C(C(=O)[O-])N3C(=O)C(NC(=O)/C(=N\OC(C(=O)O)c4ccc(O)c(O)c4)c4csc(N)n4)[C@H]3SC2)[n+](N)c1N (stereo partly drawn) [I-1(a)] | 0.063
C[n+]1cc(C(=O)O)c(N)nc1SCC1=C(C(=O)[O-])N2C(=O)C(NC(=O)/C(=N\OC(C(=O)O)c3ccc(O)c(O)c3)c3csc(N)n3)[C@H]2SC1 (stereo partly drawn) [I-6(a)] | 0.13

###

# Tested on: S. faecalis 29212A
# EXPERIMENTAL_DETAILS: Minimum inhibitory concentration, agar dilution
# Type: cell-based
# DETAILS: Enterococcus faecalis, 29212A, 20 h, read-out: Minimum Inhibitory Concentration
Measured MIC, listed per entry.

COMPOUND | SCALE_UNIT | LT_GT_EQ | MIC
Nc1nc(C(=NOC(C(=O)O)c2ccc(O)c(O)c2)C(=O)NC2C(=O)N3C(C(=O)[O-])=C(CSc4nc(N)c5c([n+]4N)CCC5)CSC23)cs1 (stereo not drawn) | µg/mL | = | 16
CC(C)(O/N=C(\C(=O)N[C@@H]1C(=O)N2C(C(=O)[O-])=C(C[n+]3ccccc3)CS[C@H]12)c1csc(N)n1)C(=O)O [CAZ, Ceftazidime, reference compound] | µg/mL | > | 128
C[n+]1cc(CS(=O)(=O)O)c(N)nc1SCC1=C(C(=O)[O-])N2C(=O)C(NC(=O)/C(=N\OC(C(=O)O)c3ccc(O)c(O)c3)c3csc(N)n3)[C@H]2SC1 (stereo partly drawn) | µg/mL | = | 32

###

Measured half-life, listed per entry.
# EXPERIMENTAL_DETAILS: Pharmacokinetic properties in SD rats
# Type: in vivo
# DETAILS: rat; SD rats (male), intravenous, 20 mg/kg; blood, biological assay (agar well method)
RESULT_TYPE: half-life (min)

COMPOUND | VAL
Cn1cc[n+]2c(SCC3=C(C(=O)[O-])N4C(=O)C(NC(=O)C(=NOC(C(=O)O)c5ccc(O)c(O)c5)c5csc(N)n5)C4SC3)nc(N)cc12 (stereo not drawn) [I-11(a)] | 68
C[n+]1c(N)cc(N)nc1SCC1=C(C(=O)[O-])N2C(=O)C(NC(=O)C(=NOC(C(=O)O)c3ccc(O)c(O)c3)c3csc(N)n3)C2SC1 (stereo not drawn) [I-3(a)] | 53
Cc1c(N)nc(SCC2=C(C(=O)[O-])N3C(=O)C(NC(=O)/C(=N\OC(C(=O)O)c4ccc(O)c(O)c4)c4csc(N)n4)[C@H]3SC2)[n+](N)c1N (stereo partly drawn) [I-1(a)] | 40
Nc1cc[n+](N)c(SCC2=C(C(=O)[O-])N3C(=O)C(NC(=O)C(=NOC(C(=O)O)c4ccc(O)c(O)c4)c4csc(N)n4)C3SC2)n1 (stereo not drawn) [I-4(a)] | 50
Nc1nc(C(=NOC(C(=O)O)c2ccc(O)c(O)c2)C(=O)NC2C(=O)N3C(C(=O)[O-])=C(CSc4nc(N)c5c([n+]4N)CCC5)CSC23)cs1 (stereo not drawn) [I-8(a)] | 53
C[n+]1ccc(N)nc1SCC1=C(C(=O)[O-])N2C(=O)C(NC(=O)/C(=N\OC(C(=O)O)c3ccc(O)c(O)c3)c3csc(N)n3)[C@H]2SC1 (stereo partly drawn) [I-5(a)] | 39
C[n+]1cc(C(=O)O)c(N)nc1SCC1=C(C(=O)[O-])N2C(=O)C(NC(=O)/C(=N\OC(C(=O)O)c3ccc(O)c(O)c3)c3csc(N)n3)[C@H]2SC1 (stereo partly drawn) [I-6(a)] | 32
C[n+]1cc(CS(=O)(=O)O)c(N)nc1SCC1=C(C(=O)[O-])N2C(=O)C(NC(=O)/C(=N\OC(C(=O)O)c3ccc(O)c(O)c3)c3csc(N)n3)[C@H]2SC1 (stereo partly drawn) [I-7(a)] | 48
Cn1c(N)n[n+]2c(SCC3=C(C(=O)[O-])N4C(=O)C(NC(=O)C(=NOC(C(=O)O)c5ccc(O)c(O)c5)c5csc(N)n5)[C@H]4SC3)nc(N)cc12 (stereo partly drawn) [I-10(a)] | 58

###

# System: P. aeruginosa 6065Y
# EXPERIMENTAL_DETAILS: Minimum inhibitory concentration, agar dilution
# Assay type: cell-based
# DETAILS: Pseudomonas aeruginosa, 20 h, read-out: Minimum Inhibitory Concentration
Measured MIC, listed per entry.

COMPOUND | MIC / µg/mL
Nc1nc(C(=NOC(C(=O)O)c2ccc(O)c(O)c2)C(=O)NC2C(=O)N3C(C(=O)[O-])=C(CSc4nc(N)c5c([n+]4N)CCC5)CSC23)cs1 (stereo not drawn) [I-8(a)] | 1
Cn1cc[n+]2c(SCC3=C(C(=O)[O-])N4C(=O)C(NC(=O)C(=NOC(C(=O)O)c5ccc(O)c(O)c5)c5csc(N)n5)C4SC3)nc(N)cc12 (stereo not drawn) [I-11(a)] | 0.5
C[n+]1ccc(N)nc1SCC1=C(C(=O)[O-])N2C(=O)C(NC(=O)/C(=N\OC(C(=O)O)c3ccc(O)c(O)c3)c3csc(N)n3)[C@H]2SC1 (stereo partly drawn) [I-5(a)] | 1
Cc1c(N)nc(SCC2=C(C(=O)[O-])N3C(=O)C(NC(=O)/C(=N\OC(C(=O)O)c4ccc(O)c(O)c4)c4csc(N)n4)[C@H]3SC2)[n+](N)c1N (stereo partly drawn) [I-1(a)] | 0.5
Nc1cc[n+](N)c(SCC2=C(C(=O)[O-])N3C(=O)C(NC(=O)C(=NOC(C(=O)O)c4ccc(O)c(O)c4)c4csc(N)n4)C3SC2)n1 (stereo not drawn) [I-4(a)] | 0.5
Cn1c(N)n[n+]2c(SCC3=C(C(=O)[O-])N4C(=O)C(NC(=O)C(=NOC(C(=O)O)c5ccc(O)c(O)c5)c5csc(N)n5)[C@H]4SC3)nc(N)cc12 (stereo partly drawn) [I-10(a)] | 0.5
CC(C)(O/N=C(\C(=O)N[C@@H]1C(=O)N2C(C(=O)[O-])=C(C[n+]3ccccc3)CS[C@H]12)c1csc(N)n1)C(=O)O [CAZ, Ceftazidime, reference compound] | 32
C[n+]1c(N)cc(N)nc1SCC1=C(C(=O)[O-])N2C(=O)C(NC(=O)C(=NOC(C(=O)O)c3ccc(O)c(O)c3)c3csc(N)n3)C2SC1 (stereo not drawn) [I-3(a)] | 1
C[n+]1cc(C(=O)O)c(N)nc1SCC1=C(C(=O)[O-])N2C(=O)C(NC(=O)/C(=N\OC(C(=O)O)c3ccc(O)c(O)c3)c3csc(N)n3)[C@H]2SC1 (stereo partly drawn) [I-6(a)] | 0.5
